The measured values listed here are drawn from the supplement of paper PMC10567573.

B1: ZNF449 (parent)
chain: RIHSGEEPHKCPECGKRFLRSSDL

# Variants of: B1
# test_name: protein stability index of a GFP-peptide fusion (GPS, HEK-293T) (PSI 1-6); higher = more stable;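 also: lentivirally expressed fusions sorted by FACS into six bins by GFP to DsRed ratio, PSI derived from sequencing read proportions per bin multiplied by bin number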
# test_parameters: c terminus: a fixed tail appended
This section presents variants with their documented protein stability index values.

- S22P: 3.5
- L24E: 4.42
- R20Y: 2.86
- E6N: 3.08
- S22F: 2.77

Please find the next variant below.
[ask] What does the data say about its protein stability index? Entry: `H3A`
[reply] 3.48
